The measurements presented in this section are drawn from paper PMC8509428.

Assay: Pharmacokinetics and tissue distribution in rats
Assay type: in vivo, rat
Conditions: male, Wistar, rat, lungs / serum, intraperitoneal, 0.3 mg/kg, AUC0-t tissue / AUC0-t serum; read-out: Kp, lungs
Method: To assess pharmacokinetic profile and tissue penetration of 2 and 3, the male Wistar rats were a single intraperitoneal (i.p.) injected with these compounds dissolved in tween (vehicle volume 1 mL/kg) at a dose of 0.3 mg/kg, determined in behavioral studies. […] Moreover, five tissues (i.e., brain, heart, lungs, kidneys and liver) were harvested, rinsed with cold saline, and the wet weights determined. […]
experimental-endpoint: Kp

- CCC(Oc1cccc(Cl)c1Cl)c1nc(N)nc(N2CCN(C)CC2)n1 (racemic): 8.54
- CCC(Oc1ccccc1)c1nc(N)nc(N2CCN(C)CC2)n1 (racemic): 6.41

* * *

Test: Pharmacokinetics and tissue distribution in rats
Format: in vivo, rat
Conditions: male, Wistar, rat, brain, ip, 0.3 mg/kg, rat, 0.3 mg/kg i.p.; read-out: Tmax, brain (converted)
Description: To assess pharmacokinetic profile and tissue penetration of 2 and 3, the male Wistar rats were a single intraperitoneal (i.p.) injected with these compounds dissolved in tween (vehicle volume 1 mL/kg) at a dose of 0.3 mg/kg, determined in behavioral studies. […] Moreover, five tissues (i.e., brain, heart, lungs, kidneys and liver) were harvested, rinsed with cold saline, and the wet weights determined. […]
experimental-endpoint: Tmax (min)

- CCC(Oc1ccccc1)c1nc(N)nc(N2CCN(C)CC2)n1 (racemic): 5

* * *

test: Pharmacokinetics and tissue distribution in rats; type: in vivo, rat; conditions: male, Wistar, ip; rat serum, 0.3 mg/kg i.p.
experimental-endpoint: MRT (h)

* CCC(Oc1cccc(Cl)c1Cl)c1nc(N)nc(N2CCN(C)CC2)n1 (racemic) [Compound 2] | 1.5
* CCC(Oc1ccccc1)c1nc(N)nc(N2CCN(C)CC2)n1 (racemic) [Compound 3] | 1.32
